system: Micrococcus luteus; assay: Antimicrobial activity against Micrococcus luteus ATCC 10240 by twofold dilution technique; type: functional
propertyMeasured: log10 of MIC (log10 of the value in µg/mL)
Friendly reminder: values = log10 of MIC, unit µg/mL.

Examples from the recorded data:
{"molecule": "CCCCOCCOCCN/C=C1\\C(=O)C(O)=C(C(C)C)c2cc(C)c(-c3c(C)cc4c(c3O)/C(=C/NCCOCCOCCCC)C(=O)C(O)=C4C(C)C)c(O)c21", "log10 of MIC": 2.30}
{"molecule": "COc1ccc2[nH]cc(CCN/C=C3\\C(=O)C(O)=C(C(C)C)c4cc(C)c(-c5c(C)cc6c(c5O)/C(=C/NCCc5c[nH]c7ccc(OC)cc57)C(=O)C(O)=C6C(C)C)c(O)c43)c2c1", "log10 of MIC": 2.00}
{"molecule": "Cc1cc2c(c(O)c1-c1c(C)cc3c(c1O)/C(=C/N)C(=O)C(O)=C3C(C)C)/C(=C/N)C(=O)C(O)=C2C(C)C", "log10 of MIC": 2.00}
{"molecule": "Cc1cc2c(c(O)c1-c1c(C)cc3c(c1O)/C(=C/NCCC(=O)N[C@@H](Cc1c[nH]cn1)C(=O)O)C(=O)C(O)=C3C(C)C)/C(=C/NCCC(=O)N[C@@H](Cc1c[nH]cn1)C(=O)O)C(=O)C(O)=C2C(C)C", "log10 of MIC": 1.70}
{"molecule": "Cc1cc2c(c(O)c1-c1c(C)cc3c(c1O)/C(=C/NCCc1cccs1)C(=O)C(O)=C3C(C)C)/C(=C/NCCc1cccs1)C(=O)C(O)=C2C(C)C", "log10 of MIC": 1.70}
{"molecule": "Cc1cc2c(c(O)c1-c1c(C)cc3c(c1O)/C(=C/NCC1COCCOCCOCCOCCOCCO1)C(=O)C(O)=C3C(C)C)/C(=C/NCC1COCCOCCOCCOCCOCCO1)C(=O)C(O)=C2C(C)C (stereo not drawn)", "log10 of MIC": 2.00}

Prompt: What does the record list as log10 of MIC for COCCOCCOCCN/N=C/c1c(O)c(O)c(C(C)C)c2cc(C)c(-c3c(C)cc4c(C(C)C)c(O)c(O)c(/C=N/NCCOCCOCCOC)c4c3O)c(O)c12 ?
Completion: 2.60

Numbers sourced from ChEMBL document CHEMBL1155271.
